# TEST TARGET: Ybr033w (UniProt P38073)
# Sequence: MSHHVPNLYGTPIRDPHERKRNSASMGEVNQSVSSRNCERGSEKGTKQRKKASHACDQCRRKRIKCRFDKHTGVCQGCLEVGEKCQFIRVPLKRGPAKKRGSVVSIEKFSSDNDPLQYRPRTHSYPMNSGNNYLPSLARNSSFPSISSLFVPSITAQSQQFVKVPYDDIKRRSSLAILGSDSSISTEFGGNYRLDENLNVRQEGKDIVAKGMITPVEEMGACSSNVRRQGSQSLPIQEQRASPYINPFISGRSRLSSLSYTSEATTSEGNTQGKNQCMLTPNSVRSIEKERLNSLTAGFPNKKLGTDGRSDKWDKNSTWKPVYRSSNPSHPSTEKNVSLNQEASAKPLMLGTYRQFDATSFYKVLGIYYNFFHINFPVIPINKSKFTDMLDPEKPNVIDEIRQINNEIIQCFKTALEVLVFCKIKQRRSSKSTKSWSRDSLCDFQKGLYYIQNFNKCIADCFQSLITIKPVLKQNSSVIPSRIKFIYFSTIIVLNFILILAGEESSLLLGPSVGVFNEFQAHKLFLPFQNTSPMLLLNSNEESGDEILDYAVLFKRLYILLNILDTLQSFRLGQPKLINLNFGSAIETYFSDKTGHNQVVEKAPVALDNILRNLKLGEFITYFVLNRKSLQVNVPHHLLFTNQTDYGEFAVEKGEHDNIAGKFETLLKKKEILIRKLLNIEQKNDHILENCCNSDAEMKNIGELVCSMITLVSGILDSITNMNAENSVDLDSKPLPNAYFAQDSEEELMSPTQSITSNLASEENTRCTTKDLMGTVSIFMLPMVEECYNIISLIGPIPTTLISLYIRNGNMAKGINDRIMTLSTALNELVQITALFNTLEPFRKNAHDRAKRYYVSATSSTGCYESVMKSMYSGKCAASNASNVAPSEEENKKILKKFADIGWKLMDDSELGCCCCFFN
# ASSAY OVERVIEW: PBM E-score (8-mer binding enrichment) (E-score (-0.5 to 0.5)); higher = stronger / more preferred TF binding
# ASSAY SETUP: protein concentration: 200 nM; construct: GST-full length
Over roughly 33,000 sequences, “E-score (-0.5 to 0.5)” has its median near -0.012; the highest 2% begin near 0.29. Shown is part of a subset that was picked to be rich in the highest values.
Consider the following sequences; for each one, report its PBM E-score.
Numbers only.

AAGTTTAT; 0.333
AAATTCAG; 0.204

// lookup PBM E-score for GTCTAATA
0.0847

----------
# TEST TARGET: Ybr033w (UniProt P38073)
# Sequence: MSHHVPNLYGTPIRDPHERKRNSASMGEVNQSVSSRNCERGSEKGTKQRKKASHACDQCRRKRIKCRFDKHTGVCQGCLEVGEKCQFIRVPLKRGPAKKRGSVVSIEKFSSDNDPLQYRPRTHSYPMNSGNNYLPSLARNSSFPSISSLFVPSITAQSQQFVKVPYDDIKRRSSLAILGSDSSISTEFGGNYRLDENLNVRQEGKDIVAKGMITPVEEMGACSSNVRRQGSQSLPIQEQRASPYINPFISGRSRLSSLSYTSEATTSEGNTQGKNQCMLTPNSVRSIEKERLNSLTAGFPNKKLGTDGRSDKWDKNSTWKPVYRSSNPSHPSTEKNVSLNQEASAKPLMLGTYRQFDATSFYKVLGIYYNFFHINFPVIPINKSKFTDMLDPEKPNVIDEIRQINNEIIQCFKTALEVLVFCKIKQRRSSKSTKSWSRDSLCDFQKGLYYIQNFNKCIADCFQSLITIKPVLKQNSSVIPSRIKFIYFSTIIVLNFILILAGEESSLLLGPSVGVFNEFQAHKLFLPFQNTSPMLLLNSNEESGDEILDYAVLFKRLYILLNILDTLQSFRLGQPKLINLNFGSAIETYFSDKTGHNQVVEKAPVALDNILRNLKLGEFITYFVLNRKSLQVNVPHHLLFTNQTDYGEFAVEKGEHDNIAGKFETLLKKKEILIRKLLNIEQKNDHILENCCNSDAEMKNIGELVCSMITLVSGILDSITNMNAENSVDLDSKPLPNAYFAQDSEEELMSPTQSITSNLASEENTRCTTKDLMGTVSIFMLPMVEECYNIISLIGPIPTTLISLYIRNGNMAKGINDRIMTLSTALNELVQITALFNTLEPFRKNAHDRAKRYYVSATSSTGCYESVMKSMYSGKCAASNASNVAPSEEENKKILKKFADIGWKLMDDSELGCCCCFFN
# ASSAY OVERVIEW: PBM E-score (8-mer binding enrichment) (E-score (-0.5 to 0.5)); higher = stronger / more preferred TF binding
# ASSAY SETUP: protein concentration: 200 nM; construct: GST-full length
Whole data set: some 33,000 sequences, median “E-score (-0.5 to 0.5)” near -0.012, cut for the highest 2% near 0.29. Only a selection was taken, and the highest values are over-represented in it overall.
READOUT: PBM E-score

Solved cases (3 shown):
TATAAACA; 0.247
GATTCTGC; 0.0635
ACAGCCTG; -0.0521

For the 5 sequences below, give their PBM E-score values.
1. ATCCCAAC
2. GATAAACC
3. ACAATAAT
4. AAGATTAA
5. CGTCCACG

1. 0.079
2. 0.236
3. 0.341
4. 0.289
5. -0.133
